Tested on: Hepatitis C virus
Assay: Antiviral activity against Hepatitis C virus H77c genotype 1a infected in human HuH7 cells after 3 days by FRET assay
Assay type: functional, organism-based, Hepacivirus hominis
Settings: genotype 1a H77, Huh-7, 72 h
Provide the recorded EC50 for the entries that follow.
A complete answer gives the number followed by the unit.

// returns reported EC50 for input COc1ccc2c(c1)C1CC1(C(=O)N1CC3CCC(C1)O3)Cn1c-2c(C2CCCCC2)c2ccc(C(=O)NS(=O)(=O)N(C)C)cc21 (racemic)
0.007 µM

Now consider COc1ccc2c(c1)C1CC1(C(=O)N1CC(O)(c3ccc(F)cc3)C1)Cn1c-2c(C2CCCCC2)c2ccc(C(=O)NS(=O)(=O)N(C)C)cc21 (racemic) and answer again.
0.054 µM

Would you mind doing CCN1CC2CC(C1)N2C(=O)[C@]12C[C@H]1c1cc(OC)ccc1-c1c(C3CCCCC3)c3ccc(C(=O)NS(=O)(=O)N(C)C)cc3n1C2 as well?
0.004 µM

Can you check COc1ccc2c(c1)C=C(C(=O)N1CCOCC1)Cn1c-2c(C2CCCCC2)c2ccc(C(=O)NS(=O)(=O)N(C)C)cc21 next?
0.061 µM

Please answer likewise for COc1ccc2c(c1)C1CC1(C(=O)N1CC3CCC(C1)N3)Cn1c-2c(C2CCCCC2)c2ccc(C(=O)NS(=O)(=O)N(C)C)cc21 (racemic)
0.034 µM

Now for a further compound.
Look at this compound and give its reported EC50. COc1ccc2c(c1)C1CC1(C(=O)N1CC(C)(O)C1)Cn1c-2c(C2CCCCC2)c2ccc(C(=O)NS(=O)(=O)N(C)C)cc21 (racemic)
0.014 µM

* * *

Biological target: Voltage-gated inwardly rectifying potassium channel KCNH2 (Homo sapiens)
Sequence (Q12809 whole entry): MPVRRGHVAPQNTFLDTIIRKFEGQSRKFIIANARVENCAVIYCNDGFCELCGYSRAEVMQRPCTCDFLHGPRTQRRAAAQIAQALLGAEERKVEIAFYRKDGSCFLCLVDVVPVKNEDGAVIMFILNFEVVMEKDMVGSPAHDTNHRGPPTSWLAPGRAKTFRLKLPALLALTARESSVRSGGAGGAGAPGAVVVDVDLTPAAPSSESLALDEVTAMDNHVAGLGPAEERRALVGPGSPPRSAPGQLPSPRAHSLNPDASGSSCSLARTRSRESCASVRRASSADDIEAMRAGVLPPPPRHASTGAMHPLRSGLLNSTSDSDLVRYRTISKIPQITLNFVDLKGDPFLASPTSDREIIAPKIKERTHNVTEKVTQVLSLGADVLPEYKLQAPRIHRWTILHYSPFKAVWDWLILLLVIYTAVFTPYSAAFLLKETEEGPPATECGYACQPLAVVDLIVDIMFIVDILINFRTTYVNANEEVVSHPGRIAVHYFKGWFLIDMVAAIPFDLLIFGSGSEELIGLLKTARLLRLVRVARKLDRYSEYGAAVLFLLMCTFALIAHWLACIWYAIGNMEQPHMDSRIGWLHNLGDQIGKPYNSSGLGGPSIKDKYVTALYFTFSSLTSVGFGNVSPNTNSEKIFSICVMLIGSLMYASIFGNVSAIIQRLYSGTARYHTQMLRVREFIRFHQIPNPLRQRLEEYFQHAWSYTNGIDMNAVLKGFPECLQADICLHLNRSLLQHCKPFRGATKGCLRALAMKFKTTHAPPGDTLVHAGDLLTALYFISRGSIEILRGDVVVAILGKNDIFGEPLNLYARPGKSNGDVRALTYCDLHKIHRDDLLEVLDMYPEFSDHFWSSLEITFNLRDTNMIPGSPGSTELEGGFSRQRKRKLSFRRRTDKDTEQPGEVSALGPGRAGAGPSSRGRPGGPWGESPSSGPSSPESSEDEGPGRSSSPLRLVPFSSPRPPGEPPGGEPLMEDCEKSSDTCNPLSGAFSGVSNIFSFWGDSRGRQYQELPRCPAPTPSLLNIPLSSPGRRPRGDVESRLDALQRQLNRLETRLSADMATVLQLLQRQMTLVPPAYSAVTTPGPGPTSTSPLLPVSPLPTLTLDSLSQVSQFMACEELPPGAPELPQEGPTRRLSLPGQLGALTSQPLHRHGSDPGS
Assay: Inhibition of human ERG by fluorescence-based thallium flux assay
QUANTITY_KIND: IC50 (µM)
Answers are plain numbers, in µM.

Query the reported IC50 for Voltage-gated inwardly rectifying potassium channel KCNH2 (Homo sapiens); item: COc1ccc2c(c1)[C@@H]1C[C@]1(C(=O)N1[C@@H]3CC[C@H]1CN(C)C3)Cn1c-2c(C2CCCCC2)c2ccc(C(=O)NS(=O)(=O)N(C)C)cc21 [BECLABUVIR]
24.5

* * *

Assay: Permeability of the compound at pH 7.4 by PAMPA
Type: physicochemical
Details: read-out: permeability
QUANTITY_KIND: Papp (×10⁻⁶ cm/s)
Answers are plain numbers, in ×10⁻⁶ cm/s.

Please give the measured Papp for this compound: COc1ccc2c(c1)C1CC1(C(=O)N1C[C@@H](C)N(C(C)=O)[C@@H](C)C1)Cn1c-2c(C2CCCCC2)c2ccc(C(=O)NS(=O)(=O)N(C)C)cc21 (mixture of isomers)
48

Provide Papp for all items below, preserving their order.
1. CCN1CC2CCC(C1)N2C(=O)C12CC1c1cc(OC)ccc1-c1c(C3CCCCC3)c3ccc(C(=O)NS(=O)(=O)N(C)C)cc3n1C2 (racemic)
2. COc1ccc2c(c1)C1CC1(C(=O)N1C3CCC1CNC3)Cn1c-2c(C2CCCCC2)c2ccc(C(=O)NS(=O)(=O)N(C)C)cc21 (racemic)

1. 41
2. 4

Dear colleague, could you send me Papp for each of the items below? Thanks.
1. COc1ccc2c(c1)C1CC1(C(=O)N1CC(O)(C(C)C)C1)Cn1c-2c(C2CCCCC2)c2ccc(C(=O)NS(=O)(=O)N(C)C)cc21 (racemic)
2. COc1ccc2c(c1)C1CC1(C(=O)N1CCN(C(C)=O)CC1)Cn1c-2c(C2CCCCC2)c2ccc(C(=O)NS(=O)(=O)N(C)C)cc21 (racemic)
3. COc1ccc2c(c1)C1CC1(C(=O)N1C3CCC1CN(C)C3)Cn1c-2c(C2CCCCC2)c2ccc(C(=O)NS(=O)(=O)N(C)C)cc21 (racemic)
4. COc1ccc2c(c1)C1CC1(C(=O)N1CC3CCC(C1)N3)Cn1c-2c(C2CCCCC2)c2ccc(C(=O)NS(=O)(=O)N(C)C)cc21 (racemic)

1. 74
2. 34
3. 77
4. 0.2

List reported Papp for each of these compounds:
1. COc1ccc2c(c1)C1CC1(C(=O)N1CC3CCC(C1)N3C)Cn1c-2c(C2CCCCC2)c2ccc(C(=O)NS(=O)(=O)N(C)C)cc21 (racemic)
2. COc1ccc2c(c1)C1CC1(C(=O)N1CC(O)C1)Cn1c-2c(C2CCCCC2)c2ccc(C(=O)NS(=O)(=O)N(C)C)cc21 (racemic)
3. COc1ccc2c(c1)C1CC1(C(=O)N1CC(O)(C3CC3)C1)Cn1c-2c(C2CCCCC2)c2ccc(C(=O)NS(=O)(=O)N(C)C)cc21 (racemic)

21
25
19

Hi team, please reply with Papp for each item in this list.
1. COc1ccc2c(c1)C1CC1(C(=O)N1CC(C)(O)C1)Cn1c-2c(C2CCCCC2)c2ccc(C(=O)NS(=O)(=O)N(C)C)cc21 (racemic)
2. COc1ccc2c(c1)C1CC1(C(=O)N1CC(O)(C(F)(F)F)C1)Cn1c-2c(C2CCCCC2)c2ccc(C(=O)NS(=O)(=O)N(C)C)cc21 (racemic)
3. COc1ccc2c(c1)C1CC1(C(=O)N1C3CC1CN(Cc1ccccc1)C3)Cn1c-2c(C2CCCCC2)c2ccc(C(=O)NS(=O)(=O)N(C)C)cc21 (racemic)

1. 30
2. 47
3. 56
